Just for reference, patent US20240076389A1 is where these values come from.

Biological target: T1, human AXL expressed on the cell surface of tumor cell lines (human, UniProt P30530 26-894)
T1 construct: whole, on cells; also called cell surface-expressed AXL; cell-based AXL
T1 sequence (looked up): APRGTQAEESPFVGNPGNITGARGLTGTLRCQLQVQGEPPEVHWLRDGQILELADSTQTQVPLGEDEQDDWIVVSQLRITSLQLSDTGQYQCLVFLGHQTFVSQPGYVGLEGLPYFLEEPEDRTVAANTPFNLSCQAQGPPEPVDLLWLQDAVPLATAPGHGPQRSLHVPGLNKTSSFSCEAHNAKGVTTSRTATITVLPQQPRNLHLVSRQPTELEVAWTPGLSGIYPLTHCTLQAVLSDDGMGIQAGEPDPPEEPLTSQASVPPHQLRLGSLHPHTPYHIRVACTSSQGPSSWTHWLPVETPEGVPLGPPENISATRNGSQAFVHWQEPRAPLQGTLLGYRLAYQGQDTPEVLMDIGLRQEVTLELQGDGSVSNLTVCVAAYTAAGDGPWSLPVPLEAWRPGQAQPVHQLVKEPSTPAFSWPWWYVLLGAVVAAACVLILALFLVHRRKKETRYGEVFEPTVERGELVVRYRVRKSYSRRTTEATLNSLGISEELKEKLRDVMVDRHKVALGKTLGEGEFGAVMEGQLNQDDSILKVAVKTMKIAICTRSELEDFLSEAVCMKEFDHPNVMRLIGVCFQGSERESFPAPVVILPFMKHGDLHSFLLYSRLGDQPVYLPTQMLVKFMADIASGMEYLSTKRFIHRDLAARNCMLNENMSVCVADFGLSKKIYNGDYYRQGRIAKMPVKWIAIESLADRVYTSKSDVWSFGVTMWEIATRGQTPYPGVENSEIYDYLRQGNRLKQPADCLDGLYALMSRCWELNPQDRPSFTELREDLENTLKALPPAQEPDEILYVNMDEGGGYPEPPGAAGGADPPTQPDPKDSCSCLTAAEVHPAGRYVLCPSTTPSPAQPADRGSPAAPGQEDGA
Assay: flow cytometry on H292 cells, apparent cell binding constant
Measured metric: Kd
The number alone won't do; follow it with the unit.

Challenge: Please report the recorded Kd for F107-10G1 (antibody, V domains shown, also called F107-10G1-3) VH: EVNLVESGGGVVKPGASLKLSCEASGFTFSNYGMSWVRQTSDKRLEWVASISGGGGRTYYLDNVKGRFIISRENAKNTLYLQMSSLKSEDTALFYCARGARASYFAMDYWGQGSSVTVSS VL: VIVMTQSHKFMSTSVGDRVSITCKASQDVTTAVAWYQQKPGQSPKLLIYWASTRHTGVPDRFTGSGSGTDYSLTISNVQTEDLAFYYCQQHFTTPLTFGAGTKLELK .
Response given: 0.101 nM
